Below: a set of entries, each annotated with reported SH2 binding enrichment.
- target_of_assay: Grb2 SH2 (UniProt P62993)
- Sequence (P62993 whole entry, looked up, the tested form may be a part): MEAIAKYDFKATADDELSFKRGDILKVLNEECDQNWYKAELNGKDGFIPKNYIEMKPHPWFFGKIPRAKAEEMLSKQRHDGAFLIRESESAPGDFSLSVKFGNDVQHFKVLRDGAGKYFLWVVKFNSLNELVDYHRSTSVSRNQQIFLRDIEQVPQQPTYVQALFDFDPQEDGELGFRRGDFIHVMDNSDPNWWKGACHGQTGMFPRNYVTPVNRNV
- method_description: SH2 binding enrichment of the phosphorylated peptide, bacterial display (enrichment ratio); higher = better substrate or ligand; peptides without Tyr show the background;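 also: peptide library displayed on the E. coli surface as eCPX fusions, selected cells deep-sequenced, score is each peptide's frequency after selection divided by its frequency in the input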
measured_endpoint: SH2 binding enrichment

INSERT INTO assay_data (entry_sequence, measured_endpoint, measured_result) VALUES
  ('QFLMKYVWSAS [ABCD1_Y337]', 'SH2 binding enrichment', 0.677),
  ('SVQVEYMKTIL [GLYATL2_Y127_D126E]', 'SH2 binding enrichment', 0.712),
  ('IVGRLYRLLTE [SETX_Y1978_L1976R]', 'SH2 binding enrichment', 1.05),
  ('EVEPRYVVLFD [ERCC4_Y577_YF]', 'SH2 binding enrichment', 0.802),
  ('LNTFHYAGVSA [POLR2A_Y1109]', 'SH2 binding enrichment', 0.9),
  ('CSSPTYRDCLQ [LARGE2_Y682_R677C]', 'SH2 binding enrichment', 0.94),
  ('EEGESYVCSSD [DCX_Y125]', 'SH2 binding enrichment', 1.08),
  ('LDLSFYPTSSS [EMD_Y182_YF]', 'SH2 binding enrichment', 0.698),
  ('FSSLGYPPPEG [ZSWIM4_Y87_YF]', 'SH2 binding enrichment', 0.957),
  ('LSGFGYRLSDQ [PDCD6_Y124]', 'SH2 binding enrichment', 0.869),
  ('RVVVPYEPPEV [TP53_Y220_S215R]', 'SH2 binding enrichment', 0.836),
  ('TIMTDYNPNYC [ALK_Y1092]', 'SH2 binding enrichment', 1.11),
  ('DDFNLYINVKL [MTHFD1_Y52_S49F]', 'SH2 binding enrichment', 0.794),
  ('PRLLRYLQLDF [ASB10_Y457]', 'SH2 binding enrichment', 1.27),
  ('RFLERDIYNRE [HLA-DPB1_Y57_Y57D]', 'SH2 binding enrichment', 1.08),
  ('FLAVGYHKTHI [IDS_Y225_P228T]', 'SH2 binding enrichment', 1.23),
  ('ETKKQYNSFTF [TMED3_Y85_D86N_YF]', 'SH2 binding enrichment', 0.65),
  ('ILTLKYPIELG [ACTA1_Y71_H75L]', 'SH2 binding enrichment', 1.14),
  ('KSVSQYLEMDK [CAGE1_Y438]', 'SH2 binding enrichment', 0.873),
  ('WFPSTYVEEDE [VAV3_Y842]', 'SH2 binding enrichment', 0.743),
  ('STEAIYWRFSK [SH3PXD2B_Y42_R43W_YF]', 'SH2 binding enrichment', 0.606),
  ('LERFIYNREEF [HLA-DPB1_Y59_F64Y_YF]', 'SH2 binding enrichment', 0.704),
  ('KASIMYPSNNC [CXCL11_Y52]', 'SH2 binding enrichment', 0.952),
  ('ASLEAYCKHKF [RXRA_Y403_YF]', 'SH2 binding enrichment', 0.963),
  ('KIEGVYARDET [RPL35A_Y34]', 'SH2 binding enrichment', 0.671),
  ('KNKNRSKNILP [PTPN11_Y279_Y279S]', 'SH2 binding enrichment', 0.777),
  ('ALSDGYWVVSN [TPP1_Y459]', 'SH2 binding enrichment', 0.823),
  ('EWCSPYGLTPR [GRIN3B_Y601_R598C]', 'SH2 binding enrichment', 0.644),
  ('VSTAVYKRFAS [BEST1_Y148_P152A]', 'SH2 binding enrichment', 0.644);
